System: estrogen-related receptor alpha (ERRalpha) with PGC-1alpha coactivator, human
assay remarks: qHTS assay to identify small molecule antagonists of the estrogen related receptor signaling pathway with the pleiotropic PPARgamma coactivator (PGC) (AID 1224821);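 further: lower luminescence signal means antagonism of PGC/ERR signalling; nearly all actives have a fitted effect of over 50% in size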
stated conditions: ERR/PGC reporter cell line, luciferase, antagonist mode; series mostly up to 46.1 µM
Results filed as inconclusive are left out. Activity calls are given as the source filed them. The call rests on the fitted dose curve.
assay readout: outcome

[
  {
    "compound": "CC(=O)NBr",
    "result": "inactive"
  },
  {
    "compound": "OC1CCCCC1N1CCC(c2ccccc2)CC1 (centres undefined)",
    "result": "inactive"
  },
  {
    "compound": "c1ccc(C2(c3ccccc3)CC2C2=NCCN2)cc1 (centres undefined)",
    "result": "inactive"
  },
  {
    "compound": "Clc1ccc(N2CC3CCC(C2)N3)nn1",
    "result": "inactive"
  }
]

---

measured on: Aromatase (Homo sapiens) (UniProt P11511)
Sequence (P11511 whole entry, looked up): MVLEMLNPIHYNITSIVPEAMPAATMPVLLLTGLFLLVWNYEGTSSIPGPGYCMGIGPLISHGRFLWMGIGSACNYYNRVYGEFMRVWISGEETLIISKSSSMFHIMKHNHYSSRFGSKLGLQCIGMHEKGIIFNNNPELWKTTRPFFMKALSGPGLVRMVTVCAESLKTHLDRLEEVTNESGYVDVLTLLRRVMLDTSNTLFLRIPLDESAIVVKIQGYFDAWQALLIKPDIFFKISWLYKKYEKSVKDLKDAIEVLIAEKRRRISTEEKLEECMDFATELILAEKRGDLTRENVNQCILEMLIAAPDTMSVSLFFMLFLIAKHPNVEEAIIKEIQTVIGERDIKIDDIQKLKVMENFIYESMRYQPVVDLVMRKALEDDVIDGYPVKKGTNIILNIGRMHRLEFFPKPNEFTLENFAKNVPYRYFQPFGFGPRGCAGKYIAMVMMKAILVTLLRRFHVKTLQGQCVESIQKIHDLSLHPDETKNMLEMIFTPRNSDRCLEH
assay remarks: qHTS assay to identify aromatase inhibitors (AID 743083); further: nearly all actives have a fitted effect of over 55% in size
stated conditions: MCF-7 aro ERE, testosterone-driven ERE luciferase, 24 h; series mostly up to 70.3 µM
Results filed as inconclusive are left out. Calls of active or inactive are those of the source. Calls follow the shape of the dose curve; as a rule, active = well fitted inhibition curve with a large enough effect in the repeat runs; inconclusive = weak or mixed curves; inactive = no such curve, though single readings can be large or run the other way.
A correct response names exactly one class from active, inactive

[
  {
    "compound": "Cc1ccc(C)cc1",
    "measured on": "Aromatase (Homo sapiens) (UniProt P11511)",
    "label": "inactive"
  },
  {
    "compound": "Clc1nc(Cl)c(Cl)c(Cl)c1Cl",
    "measured on": "Aromatase (Homo sapiens) (UniProt P11511)",
    "label": "inactive"
  },
  {
    "compound": "CCCCNC(C)(C)[P+](=O)O",
    "measured on": "Aromatase (Homo sapiens) (UniProt P11511)",
    "label": "inactive"
  },
  {
    "compound": "O=[N+]([O-])c1cc(I)c(O)c(I)c1",
    "measured on": "Aromatase (Homo sapiens) (UniProt P11511)",
    "label": "inactive"
  },
  {
    "compound": "C[C@]12C=CC(=O)C=C1CC[C@@H]1[C@@H]2CC[C@]2(C)OC(=O)CC[C@@H]12",
    "measured on": "Aromatase (Homo sapiens) (UniProt P11511)",
    "label": "inactive"
  },
  {
    "compound": "Oc1ccc(Cl)cc1Cc1cc(Cl)ccc1O",
    "measured on": "Aromatase (Homo sapiens) (UniProt P11511)",
    "label": "active"
  }
]

Which outcome did this test record for the compound C[C@@H]1[C@H](O)[C@@H](C)/C=C/C=C/CC/C=C/C=C/C=C/C=C/[C@H](O[C@H]2O[C@@H](C)[C@H](O)[C@@H](N)[C@H]2O)CC2O[C@](O)(C[C@@H](O)[C@H](O)CC[C@@H](O)C[C@@H](O)C[C@@H](O)CC(=O)O[C@H]1C)C[C@H](O)[C@H]2C(=O)O ? inactive

Which outcome did this test record for the compound C[C@@H]1[C@@H]2Cc3ccc(O)cc3[C@@]1(C)CCN2CC1CC1 ? inactive

Which outcome did this test record for the compound COC(COC(N)=O)C1=C(N2CC2)C(=O)C(C)=C(N2CC2)C1=O (configuration not stated) ? active

Which outcome did this test record for the compound CC(=O)Oc1ccc2c3c1O[C@H]1[C@@H](OC(C)=O)C=C[C@H]4[C@@H](C2)N(C)CC[C@@]341 ? inactive

Which outcome did this test record for the compound CN[C@H]1C[C@@H](N)[C@H](O)[C@@H](O[C@@H]2O[C@H](CO)[C@H](O)[C@@H]3OC4(O[C@H]23)O[C@H](C(N)CO)[C@H](O)[C@H](O)[C@H]4O)[C@@H]1O (some centres not stated) ? inactive

Which outcome did this test record for the compound C[C@]12CCC(=O)C[C@@H]1CC[C@@H]1[C@@H]2CC[C@@]2(C)[C@H]1CC[C@]2(C)O ? inactive
